Test system: Aβ production
method description: Cellular Aβ IC50 determination (Aβ40 sandwich ELISA)
Type: cell-based
test conditions: Cricetulus griseus, Chinese hamster ovary cells over-expressing human APP695 with London and Swedish mutations, 24 h
pIC50: −log10 of the molar value.
property label: pIC50

INSERT INTO measurements (compound, assay_system, assay_value) VALUES
  ('CC[C@@H](Cn1nc(C)cc1C)C(=O)N[C@@H](CSC)C(=O)N[C@H](CC(C)C)[C@@H](O)C[C@@H](C)C(=O)N[C@@H](C(=O)NCC(C)C)C(C)C [Structure 3]', 'Aβ production', '> 5.22');

I'm hoping you can list pIC50 for every compound here, please.
1. Cc1nc(COC(=O)N[C@@H](CS(C)(=O)=O)C(=O)N[C@H](CC(C)C)[C@@H](O)C[C@@H](C)C(=O)N[C@@H](C(=O)O)C(C)C)c(C)o1 [Structure 86]
2. CCSC[C@H](NC(=O)OCc1nc(C)cs1)C(=O)N[C@H](CC(C)C)[C@@H](O)C[C@@H](C)C(=O)N[C@@H](C(=O)NCC(C)C)C(C)C [Structure 19]
3. CSC[C@H](NC(=O)CCn1nc(C)cc1C)C(=O)N[C@H](CC(C)C)[C@@H](O)C[C@@H](C)C(=O)N[C@@H](C(=O)NCC(C)C)C(C)C [Structure 4]
4. CCC(CC)S(=O)(=O)C[C@H](NC(=O)OCc1nc(C)cs1)C(=O)N[C@H](CC(C)C)[C@@H](O)C[C@@H](C)C(=O)N[C@@H](C(=O)NCC(C)C)C(C)C [Structure 73]
5. Cc1csc(COC(=O)N[C@@H](CS(C)(=O)=O)C(=O)N[C@H](Cc2cc(F)cc(F)c2)[C@@H](O)C[C@@H](C)C(=O)N[C@@H](C(=O)NCC(C)C)C(C)C)n1 [Structure 79]
6. COC(=O)[C@H](NC(=O)[C@H](C)C[C@H](O)[C@@H](CC(C)C)NC(=O)[C@H](CSC)NC(=O)OCc1nc(C)cs1)C(C)C [Structure 88]
7. Cc1nc(COC(=O)N[C@@H](CS(C)(=O)=O)C(=O)N[C@H](CC(C)C)[C@@H](O)C[C@@H](C)C(=O)N[C@@H](C(=O)NCc2ccccn2)C(C)C)c(C)o1 [Structure 91]
8. Cc1nc(COC(=O)N[C@@H](CS(C)(=O)=O)C(=O)N[C@H](Cc2cc(F)cc(F)c2)[C@@H](O)C[C@@H](C)C(=O)N[C@@H](C(=O)NCC(C)C)C(C)C)c(C)o1 [Structure 78]

1: < 4.00; 2: < 4.00; 3: 4.00 to 5.22; 4: 4.00 to 5.22; 5: > 5.22; 6: > 5.22; 7: < 4.00; 8: 4.00 to 5.22

I'm hoping you can list pIC50 for every compound here, please.
1. CSC[C@H](NC(=O)C(C)Cc1nc(C)cs1)C(=O)N[C@H](CC(C)C)[C@@H](O)C[C@@H](C)C(=O)N[C@@H](C(=O)NCC(C)C)C(C)C (stereo partly drawn) [Structure 34]
2. Cc1coc(COC(=O)N[C@@H](CS(C)(=O)=O)C(=O)N[C@@H](CC(C)C)[C@@H](O)C[C@@H](C)C(=O)N[C@H](C(=O)NCC(C)C)C(C)C)n1 [Structure 95]
3. CSC[C@H](NC(=O)OCc1nc(C)oc1C)C(=O)N[C@H](CC(C)C)[C@@H](O)C[C@@H](C)C(=O)N[C@@H](C(=O)NCC(C)C)C(C)C [Structure 29]

["> 5.22", "> 5.22", "> 5.22"]

I'm hoping you can list pIC50 for every compound here, please.
1. Cc1csc(COC(=O)N[C@@H](CS(=O)(=O)C2CCCC2)C(=O)N[C@H](CC(C)C)[C@@H](O)C[C@@H](C)C(=O)N[C@@H](C(=O)NCC(C)C)C(C)C)n1 [Structure 58]
2. Cc1csc(COC(=O)N[C@@H](CSC2CCCC2)C(=O)N[C@H](CC(C)C)[C@@H](O)C[C@@H](C)C(=O)N[C@@H](C(=O)NCC(C)C)C(C)C)n1 [Structure 56]
3. CSC[C@H](NC(=O)[C@@H](C)Cc1nc(C)cs1)C(=O)N[C@H](CC(C)C)[C@@H](O)C[C@@H](C)C(=O)N[C@@H](C(=O)NCC(C)C)C(C)C [Structure 64]
4. Cc1nc(COC(=O)N[C@@H](CSC(C)C)C(=O)N[C@H](CC(C)C)[C@@H](O)C[C@@H](C)C(=O)N[C@@H](C(=O)NCC(C)C)C(C)C)c(C)o1 [Structure 60]
5. Cc1csc(COC(=O)N[C@@H](CSC(C)C)C(=O)N[C@H](CC(C)C)[C@@H](O)C[C@@H](C)C(=O)N[C@@H](C(=O)NCC(C)C)C(C)C)n1 [Structure 32]
6. Cc1cc(C)n(COC(=O)N[C@@H](C[S+](C)[O-])C(=O)N[C@@H](CC(C)C)[C@@H](O)C[C@@H](C)C(=O)N[C@H](C(=O)NCC(C)C)C(C)C)n1 (stereo partly drawn) [Structure 9]

1. > 5.22
2. < 4.00
3. > 5.22
4. > 5.22
5. > 5.22
6. > 5.22

I'm hoping you can list pIC50 for every compound here, please.
1. COCSC[C@H](NC(=O)OCc1nc(C)cs1)C(=O)N[C@H](CC(C)C)[C@@H](O)C[C@@H](C)C(=O)N[C@@H](C(=O)NCC(C)C)C(C)C [Structure 36]
2. Cc1csc(COC(=O)N[C@@H](CS(=O)(=O)C(C)C)C(=O)N[C@H](CC(C)C)[C@@H](O)C[C@@H](C)C(=O)N[C@@H](C(=O)NCC(C)C)C(C)C)n1 [Structure 31]
3. CC[C@@H](Cn1nc(C)cc1C)C(=O)N[C@@H](CS(C)(=O)=O)C(=O)N[C@@H](CC(C)C)[C@@H](O)C[C@@H](C)C(=O)N[C@@H](C(=O)NCC(C)C)C(C)C [Structure 7]

> 5.22
4.00 to 5.22
< 4.00

---

Provide the recorded Ki for the entries that follow.
Sequence of the target: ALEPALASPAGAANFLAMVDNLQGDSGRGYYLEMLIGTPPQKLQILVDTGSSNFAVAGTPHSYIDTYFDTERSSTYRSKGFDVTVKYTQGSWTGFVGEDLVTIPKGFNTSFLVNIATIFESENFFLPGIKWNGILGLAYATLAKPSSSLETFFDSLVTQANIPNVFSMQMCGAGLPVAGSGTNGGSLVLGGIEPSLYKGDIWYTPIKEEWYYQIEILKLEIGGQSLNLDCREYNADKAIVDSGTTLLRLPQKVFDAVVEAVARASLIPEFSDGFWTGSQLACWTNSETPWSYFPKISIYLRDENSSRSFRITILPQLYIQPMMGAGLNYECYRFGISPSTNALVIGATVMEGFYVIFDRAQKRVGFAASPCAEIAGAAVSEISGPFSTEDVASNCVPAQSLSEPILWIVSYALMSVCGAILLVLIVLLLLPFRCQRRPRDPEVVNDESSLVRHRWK

Some entries whose results are on file:
INSERT INTO measurements (compound, property_label, assay_value) VALUES
  ('Cc1csc(COC(=O)N[C@@H](CS(C)(=O)=O)C(=O)N[C@@H](CC(C)C)[C@@H](O)C[C@@H](C)C(=O)N[C@H]2CCNC2=O)n1', 'Ki', '> 1000 nM'),
  ('Cc1nc(COC(=O)N[C@@H](CS(C)(=O)=O)C(=O)N[C@H](CC(C)C)[C@@H](O)C[C@@H](C)C(=O)N[C@@H](C(=O)NCC(C)C)C(C)C)cs1', 'Ki', '100 to 1000 nM');

I'm hoping you can list Ki for every compound here, please.
1. Cc1csc(COC(=O)N[C@@H](CS(C)(=O)=O)C(=O)N[C@H](Cc2cc(F)cc(F)c2)[C@@H](O)C[C@@H](C)C(=O)N[C@@H](C(=O)NCC(C)C)C(C)C)n1
2. CCc1nc(COC(=O)N[C@@H](CS(C)(=O)=O)C(=O)N[C@H](CC(C)C)[C@@H](O)C[C@@H](C)C(=O)N[C@@H](C(=O)NCC(C)C)C(C)C)c(C)o1
3. COC(=O)[C@H](NC(=O)[C@H](C)C[C@H](O)[C@@H](CC(C)C)NC(=O)[C@H](CSC)NC(=O)OCc1nc(C)cs1)C(C)C

1. < 100 nM
2. 100 to 1000 nM
3. > 1000 nM

I'm hoping you can list Ki for every compound here, please.
1. CSC[C@H](NC(=O)OCc1nc(C)cs1)C(=O)N[C@H](CC(C)C)[C@@H](O)C[C@@H](C)C(=O)N[C@H](CN(C)C)C(=O)NC(C)C
2. CSC[C@H](NC(=O)CC(C)n1nc(C)cc1C)C(=O)N[C@@H](CC(C)C)[C@@H](O)C[C@@H](C)C(=O)N[C@H](C(=O)NCC(C)C)C(C)C (some centres unmarked)
3. CCSC[C@H](NC(=O)OCc1nc(C)cs1)C(=O)N[C@H](CC(C)C)[C@@H](O)C[C@@H](C)C(=O)N[C@@H](C(=O)NCC(C)C)C(C)C

["> 1000 nM", "100 to 1000 nM", "< 100 nM"]
